# System Tested: HLA-A*02 (Homo sapiens, UniProt P04439, D140Y/D185E/D98H/E176V/E277Q/G131W/G231S/I119V/I121R/I166T/I218V/L300P/N151K/N90K/P208A/P217A/Q86G/Q94H/R138H/R169H)
# Construct: made in house
# Test Details: MHC binding assay, UV-ligand exchange with beta2m ELISA (peptide exchange yield)
# Condition Parameters: binding to HLA-A*02
Readout Kind: Peptide exchange (MHC class I binding score, peptide exchange yield)

| Substance | Readout Value |
| --- | --- |
| 79 (VTFKEYVTV; listed as Homo sapiens) [compound 79] | ++ (20%-49% = ++) |
| 26 (ALQEELTEL; listed as Homo sapiens) [compound 26] | +++ (50%-75% = +++) |
| 39 (HLLEGSVGV; listed as Homo sapiens) [compound 39] | +++ (50%-75% = +++) |
| 85 (VLNDILVRA; listed as Homo sapiens) [compound 85] | +++ (50%-75% = +++) |
| 57 (TVFTDHMLTV; listed as Homo sapiens) [compound 57] | ++ (20%-49% = ++) |
| 60 (ALFAPLVHL; listed as Homo sapiens) [compound 60] | +++ (50%-75% = +++) |
| 118 (QLWQFLVTL; listed as Homo sapiens) [compound 118] | +++ (50%-75% = +++) |
| 4 (KLMPGTYTL; listed as Homo sapiens) [compound 4] | ++++ (> = 75% = ++++) |
| 84 (ALCPRIHEV; listed as Homo sapiens) [compound 84] | ++++ (> = 75% = ++++) |
